tested on: CCRIS mutagenicity, Ames/micronucleus/aberration tests; assay: CCRIS mutagenicity studies; details: Test System: Ames Salmonella typhimurium; Strain/Indicator: TA100; Metabolic Activation: None; Method: Standard plate
The source made the active and inactive calls. No rule for the calls is given here.
Classes used: yes (1) for active, no (0) for inactive

> print(dat)
                    structure.smiles.string    group
1                                    C=CCBr  yes (1)
2     CN(C)c1ccc2nc3ccc(=[N+](C)C)cc-3sc2c1   no (0)
3  C[C@]12CC[C@@H]3c4ccc(O)c(O)c4CC[C@H]3[C@@H]1CCC2=O   no (0)
4                              Nc1ccc(N)cc1   no (0)

Where do the numbers come from? From PubChem BioAssay AID1259407.
